target-under-test: JAK1 (Homo sapiens, UniProt P23458)
Construct: PV4775
Sequence (P23458 whole entry): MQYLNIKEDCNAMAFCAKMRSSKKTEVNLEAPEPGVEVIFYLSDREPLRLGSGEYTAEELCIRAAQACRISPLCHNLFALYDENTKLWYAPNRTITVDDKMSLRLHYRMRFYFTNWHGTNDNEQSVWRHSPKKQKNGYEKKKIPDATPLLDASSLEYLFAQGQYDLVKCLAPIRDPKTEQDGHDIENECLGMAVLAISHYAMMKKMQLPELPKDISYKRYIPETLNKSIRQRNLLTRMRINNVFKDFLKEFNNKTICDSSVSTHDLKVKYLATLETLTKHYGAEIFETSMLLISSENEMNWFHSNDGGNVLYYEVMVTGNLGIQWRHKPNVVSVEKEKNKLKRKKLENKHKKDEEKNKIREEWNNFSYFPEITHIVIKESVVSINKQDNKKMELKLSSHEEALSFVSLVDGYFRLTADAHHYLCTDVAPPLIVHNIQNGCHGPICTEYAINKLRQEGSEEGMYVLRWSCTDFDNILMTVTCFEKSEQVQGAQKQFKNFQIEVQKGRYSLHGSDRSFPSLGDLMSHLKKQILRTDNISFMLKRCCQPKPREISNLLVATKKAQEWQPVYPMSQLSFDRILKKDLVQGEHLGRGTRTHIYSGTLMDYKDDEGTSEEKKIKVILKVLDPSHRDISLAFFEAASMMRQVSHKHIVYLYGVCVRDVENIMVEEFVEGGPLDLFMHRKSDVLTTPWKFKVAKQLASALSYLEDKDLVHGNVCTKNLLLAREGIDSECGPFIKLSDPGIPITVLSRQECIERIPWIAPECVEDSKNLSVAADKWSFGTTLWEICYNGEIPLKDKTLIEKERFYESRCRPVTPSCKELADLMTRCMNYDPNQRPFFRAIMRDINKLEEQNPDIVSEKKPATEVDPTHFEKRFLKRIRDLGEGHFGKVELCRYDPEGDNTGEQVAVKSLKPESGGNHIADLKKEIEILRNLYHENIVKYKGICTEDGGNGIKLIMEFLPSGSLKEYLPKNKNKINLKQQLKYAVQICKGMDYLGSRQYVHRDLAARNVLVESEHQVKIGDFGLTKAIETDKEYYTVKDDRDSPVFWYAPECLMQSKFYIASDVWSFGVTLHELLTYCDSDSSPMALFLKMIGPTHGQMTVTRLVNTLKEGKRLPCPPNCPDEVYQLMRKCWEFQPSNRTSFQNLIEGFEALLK
experiment-description: JAK enzymatic assay (peptide mobility shift), JAK1
measurement-context: recombinant JAK1 20 nM, ATP 40 μM, 1 μM IRS-1 peptide, 240 minutes
observed-property: pIC50
Reminder that pIC50 is minus the log10 of a molar concentration.

So, CN(c1ncnc2[nH]ccc12)[C@H]1CC[C@H](CS(=O)(=O)Nc2ccc3[nH]ccc3c2)CC1 ? Its pIC50 was 8.78

Query CN(c1ncnc2[nH]ccc12)[C@H]1CC[C@H](CS(=O)(=O)N[C@H]2CC[C@H](C(C)(C)O)CC2)CC1 yields pIC50 of 8.06

The recorded pIC50 for entry CN(c1ncnc2[nH]ccc12)[C@H]1CC[C@H](CS(=O)(=O)NCCc2cccc(F)c2)CC1 equals 8.31

Noted for CN(c1ncnc2[nH]ccc12)[C@H]1CC[C@H](CS(=O)(=O)NCCC(F)=C(F)F)CC1 : its pIC50 reads 7.71

Query Cc1cc2cc(CNS(=O)(=O)C[C@H]3CC[C@H](N(C)c4ncnc5[nH]ccc45)CC3)ccc2[nH]1 yields pIC50 of 8.17

// field: pIC50; key: COc1ccccc1CCCNS(=O)(=O)C[C@H]1CC[C@H](N(C)c2ncnc3[nH]ccc23)CC1 ; value = 7.97

pIC50 for CN(Cc1cnccn1)S(=O)(=O)C[C@H]1CC[C@H](N(C)c2ncnc3[nH]ccc23)CC1 is 7.83

# compound CN(c1ncnc2[nH]ccc12)[C@H]1CC[C@H](CS(=O)(=O)NCCc2ccc(S(N)(=O)=O)cc2)CC1 ; its pIC50 = 8.74

Short answer for CN(c1ncnc2[nH]ccc12)[C@H]1CC[C@@H](CS(=O)(=O)NCCc2ccccc2)CC1 : pIC50 was 7.94

Input CN(c1ncnc2[nH]ccc12)[C@H]1CC[C@H](CS(=O)(=O)NCC(F)(F)c2ccccc2)CC1 . Output pIC50: 8.37

For this compound ( Cc1cnc(CNS(=O)(=O)C[C@H]2CC[C@H](N(C)c3ncnc4[nH]ccc34)CC2)cn1 ), measured pIC50 is 7.82

pIC50 reported for this compound CN(c1ncnc2[nH]ccc12)[C@H]1CC[C@H](CS(=O)(=O)NCCc2ccccc2F)CC1 : 8.33

compound CN(c1ncnc2[nH]ccc12)[C@H]1CC[C@H](CS(=O)(=O)NCCc2ccc(Cl)cc2)CC1 , pIC50 observed: 8.44

Documented pIC50 of Cc1ccc(CCNS(=O)(=O)C[C@H]2CC[C@H](N(C)c3ncnc4[nH]ccc34)CC2)cc1 : 8.35

Measured pIC50, Cc1ccc(NS(=O)(=O)C[C@H]2CC[C@H](N(C)c3ncnc4[nH]ccc34)CC2)cn1 : 7.78
